B1: POU domain, class 2, transcription factor 2, residues 200 to 269; numbered along this chain, P09086 (parent)
chain: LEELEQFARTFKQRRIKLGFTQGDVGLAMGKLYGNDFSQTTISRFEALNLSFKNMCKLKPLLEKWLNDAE

Variants of: B1
Assay: abundance fitness (aPCA) (normalised: wild type 0, dead -1); higher = more abundant; growth selection in yeast, the domain comes from the species named
Details: Homo sapiens
measured property: abundance fitness
Reply briefly: the number, and no unit.

Query: Input LEELEQFARTFKQRRIKLGFTQGDVGLAMGKLYGNDFSQTTISRFRALNLSFKNMCKLKPLLEKWLNDAE [E46R] , output reported abundance fitness.
Response: -0.993

Query: Input LEELEQFARTFKQRRIKLGFTQGDVGLAMGKLIGNDFSQTTISRFEALNLSFKNMCKLKPLLEKWLNDAE [Y33I] , output reported abundance fitness.
Response: -0.076

Query: Input LEELEQFARTFKQRRIKLGFTQGDVGLAMGKLYGNDFSQTYISRFEALNLSFKNMCKLKPLLEKWLNDAE [T41Y] , output reported abundance fitness.
Response: -0.078

Query: Input LHELEQFARTFKQRRIKLGFTQGDVGLAMGKLYGNDFSQTTISRFEALNLSFKNMCKLKPLLEKWLNDAE [E2H] , output reported abundance fitness.
Response: -0.366

Query: Input LEELEQFARTFKQRRIKLGFTQGDVGLAMGKLYGNDFSQTTISRFEALNLSKKNMCKLKPLLEKWLNDAE [F52K] , output reported abundance fitness.
Response: -0.031

Query: Input LEELEQFARTFKQRRIKLGFTQGDVGLAMGKLYGNDFSQTTISRFEALNLSFKNMCYLKPLLEKWLNDAE [K57Y] , output reported abundance fitness.
Response: -0.089

Query: Input LEELEQFARTFKQRRIKLGFTHGDVGLAMGKLYGNDFSQTTISRFEALNLSFKNMCKLKPLLEKWLNDAE [Q22H] , output reported abundance fitness.
Response: -0.062

Query: Input LEELEQFARTFKQRFIKLGFTQGDVGLAMGKLYGNDFSQTTISRFEALNLSFKNMCKLKPLLEKWLNDAE [R15F] , output reported abundance fitness.
Response: -0.99

Query: Input LEELEQFARTFKQRRIKLGFTQGDVGLAMGKLYGNDFSQTTISRFEALNLSFKNMCKLKPLLERWLNDAE [K64R] , output reported abundance fitness.
Response: -0.054

Query: Input LEELEQFARTFKQRRIKLGFTQGDVELAMGKLYGNDFSQTTISRFEALNLSFKNMCKLKPLLEKWLNDAE [G26E] , output reported abundance fitness.
Response: -0.023

Query: Input LEELEQFARTFKQRRIKLGFTQGDVGLAMGKLYGNDFSQTTISRFEALNLLFKNMCKLKPLLEKWLNDAE [S51L] , output reported abundance fitness.
Response: -0.785

Query: Input LEELEQFARTFKQRRIKLGFTQGDVGLAKGKLYGNDFSQTTISRFEALNLSFKNMCKLKPLLEKWLNDAE [M29K] , output reported abundance fitness.
Response: -0.95

Query: Input LEELEQFARTFKQRRIKLGFTQGDVGLAMGKLYGNDFSQTTISEFEALNLSFKNMCKLKPLLEKWLNDAE [R44E] , output reported abundance fitness.
Response: 0.088

Query: Input LEELEQFARTFKQRRIKLGFTQGDVGLAMGKLYGNDFSQTTISRFEALNLSFKNMCKLKPLLEKWQNDAE [L66Q] , output reported abundance fitness.
Response: -0.358

Query: Input LEELEQFARTFKQRRIKLGFTQGDVGLAMGKLYGNDFSQTTISRFEALNLSFKNMCKAKPLLEKWLNDAE [L58A] , output reported abundance fitness.
Response: -0.002

Query: Input LMELEQFARTFKQRRIKLGFTQGDVGLAMGKLYGNDFSQTTISRFEALNLSFKNMCKLKPLLEKWLNDAE [E2M] , output reported abundance fitness.
Response: 0.173

Query: Input LEELEQFARTFKQRRIKLGFTQGDVGLAMGKLYGNDFSQTTISRFEALNLSFKNMIKLKPLLEKWLNDAE [C56I] , output reported abundance fitness.
Response: -0.09

Query: Input LEELEQFARTFKQRRIKLGFTQGDVGLAMGKLYGNDFSQTTISRFEALNLSFKNMCKLKILLEKWLNDAE [P60I] , output reported abundance fitness.
Response: 0.098

Query: Input LEELEQFARTFKQRRIKLGFTQGDVGLAMGKLYGNDFSQTNISRFEALNLSFKNMCKLKPLLEKWLNDAE [T41N] , output reported abundance fitness.
Response: -0.062

Query: Input LEELEQFARTFKQRRIWLGFTQGDVGLAMGKLYGNDFSQTTISRFEALNLSFKNMCKLKPLLEKWLNDAE [K17W] , output reported abundance fitness.
Response: -0.129

Query: Input LEELEQFARTAKQRRIKLGFTQGDVGLAMGKLYGNDFSQTTISRFEALNLSFKNMCKLKPLLEKWLNDAE [F11A] , output reported abundance fitness.
Response: -0.151

Query: Input LEELEQFARTFKQARIKLGFTQGDVGLAMGKLYGNDFSQTTISRFEALNLSFKNMCKLKPLLEKWLNDAE [R14A] , output reported abundance fitness.
Response: -0.064

Source listed as the Human Domainome abundance scans (Beltran et al. 2025).
